# system.under.test: Mitogen-activated protein kinase 1 (Homo sapiens) (UniProt P28482)
# Sequence (P28482 whole entry): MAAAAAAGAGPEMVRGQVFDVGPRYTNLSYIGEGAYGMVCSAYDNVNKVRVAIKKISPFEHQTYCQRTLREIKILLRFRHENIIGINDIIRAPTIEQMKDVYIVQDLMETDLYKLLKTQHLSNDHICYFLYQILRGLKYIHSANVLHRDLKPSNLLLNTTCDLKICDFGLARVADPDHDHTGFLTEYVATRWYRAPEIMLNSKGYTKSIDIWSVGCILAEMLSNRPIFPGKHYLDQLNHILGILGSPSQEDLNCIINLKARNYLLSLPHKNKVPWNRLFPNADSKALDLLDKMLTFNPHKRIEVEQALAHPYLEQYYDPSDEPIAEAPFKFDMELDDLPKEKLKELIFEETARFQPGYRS
# condition: Compound concentration 20.0 uM, Protein concentration 2.0 uM, Result type QC Liability
# Description: Thermal Shift Assay. Domain: start/stop: M1-S360
// classify(record): look up ΔTm in ranges group A = under 0 °C, group B = from 0 °C up to 0.4 °C, group C = 0.4 °C and over

- N=C(N)NCCC[C@@H](NC(=O)C(c1ccccc1)c1ccccc1)C(=O)NCc1ccc(CNC(N)=O)cc1: group B
- CC(=O)c1ccc2c(c1)/C(=C(/Nc1cccc(C#N)c1)c1ccc3c(c1)OCCO3)C(=O)N2: group C
- Cn1cc(NC(=O)c2ccc3nc4n(c3c2)CCCNC4=O)nc1C(=O)NC1CCCC1: group C
- Cc1cc(C)nc(Nc2ncc(C(=O)NCCc3c(C)[nH]c4ccccc34)cn2)c1: group A
- CCN(CC)C(=O)C1CN2CCc3cc(OC)c(OC)cc3C2CC1OC(C)=O (centres undefined): group B
- COc1ccc(C(F)(F)F)cc1NC(=O)Nc1ccc(Oc2cc(C)nc(N)n2)c2ccccc12: group B
- C#Cc1cnc2[nH]cc(-c3cccc4c3CCN4C(=O)[C@@H]3CCCN3C#N)c2c1: group C
- CCCCC(C)(O)C/C=C/[C@H]1[C@H](O)CC(=O)[C@@H]1CCCCCCC(=O)O (some centres undefined): group A
- C[C@@H]1CCNC(=O)c2cc3ccc(C(=O)Nc4nc5ccccc5n4CCCN(C)C)cc3n21: group B
- C[C@]12CC[C@@H]3c4ccc(O)cc4CC[C@H]3[C@@H]1C[C@H]1OC(=O)C[C@]12O: group B
- O=C(O)CCCCN(CCc1ccccc1OCc1ccc(CCc2ccccc2)cc1)Cc1ccc(C(=O)O)cc1: group A
- Cn1cc(-c2ccc(N(C(=O)NCc3ccccc3)[C@H]3CC[C@H](Nc4ccc(C#N)cn4)CC3)cc2)ccc1=O: group A
- COCCNC1CCC(Nc2cc(-c3csc(NCC4(C#N)CCOCC4)n3)c(Cl)cn2)CC1 (centres undefined): group C

---

Listed below: ΔTm values for each entry.
# system.under.test: Glycogen synthase kinase-3 beta (Homo sapiens) (UniProt P49841)
# Sequence (P49841 whole entry, looked up): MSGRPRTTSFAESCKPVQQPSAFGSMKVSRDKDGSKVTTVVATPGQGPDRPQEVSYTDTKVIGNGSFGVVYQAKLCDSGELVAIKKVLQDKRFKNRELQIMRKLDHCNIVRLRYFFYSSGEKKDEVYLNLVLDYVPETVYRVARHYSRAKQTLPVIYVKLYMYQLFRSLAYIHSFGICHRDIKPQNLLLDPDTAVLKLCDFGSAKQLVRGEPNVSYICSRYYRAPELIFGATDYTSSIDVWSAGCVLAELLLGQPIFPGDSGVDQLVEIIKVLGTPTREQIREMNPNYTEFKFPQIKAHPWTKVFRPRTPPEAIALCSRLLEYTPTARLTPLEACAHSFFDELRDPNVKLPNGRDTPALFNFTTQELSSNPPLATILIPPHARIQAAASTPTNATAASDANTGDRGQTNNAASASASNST
# condition: Compound concentration 20.0 uM, Protein concentration 2.0 uM, Result type QC Liability
value.kind: ΔTm (°C)

• NCc1ccc(OCCCc2sc(-c3ccc4c(c3)/C(=N/Nc3nc5ccccc5s3)CCC4)nc2C(=O)O)cc1 = -0.12
• CCO[C@@H](Cc1ccc(OCCc2ccc(OS(C)(=O)=O)cc2)cc1)C(=O)O = -0.58
• C#Cc1cnc2[nH]cc(-c3cccc4c3CCN4C(=O)[C@@H]3CCCN3C#N)c2c1 = 2.99
• CN1C(=O)c2c(nn(Cc3ccc(-c4cccc(F)n4)cc3)c2Nc2ccccc2)N2C1=N[C@@H]1CCC[C@@H]12 = 3.99
• Cc1cc(=O)n(C)c2cc(N3C(=O)CC[C@H](NS(=O)(=O)CC(C)C)[C@H]3c3ccc(Cl)cc3)ccc12 = -0.55
• CCC(C)(C)CC[C@H](NC(=O)N1CCOCC1)C(=O)NC1(C#N)CCN(C)CC1 = 0.11
• CC[C@@H](CO)Nc1nc(Nc2cccc(NC(=O)C(C)(C)C)c2)ncc1F = 3.34
• O=C1COc2cc(C(=O)N(Cc3ccc(C(=O)Nc4ccncn4)cc3)C3CC3)ccc2N1 = -0.19
• CC[C@H](CO)Nc1nc(Nc2cccc(-c3ccccn3)c2)c2ncn(C(C)C)c2n1 = 1.93
• CC(=O)N(CCN(C)C)c1ccc(N/C(=C2\C(=O)Nc3cc(Cl)ccc32)c2ccccc2)cn1 = 11.3
• CC(C)(C)OC(=O)CN1C(=O)c2c(OCC(=O)O)cccc2Oc2ccc(C(F)(F)F)cc21 = 1.17
• CNC(=O)c1cccc(-c2ccc3c(N4CCOC[C@@H]4C)nc(N4CCOC[C@@H]4C)nc3n2)c1 = 0.51
• O=C(O)c1cc(F)c2nc(N3[C@@H]4CC[C@H]3C[C@@H](OCc3c(-c5ccccc5OC(F)(F)F)noc3C3CC3)C4)sc2c1 = -5.45
• O=C(CCSCc1ccco1)NNC(=O)N1Cc2ccccc2Oc2ccc(Cl)cc21 = -9.34
• COc1cc(N(C)c2ccnc3ccc(C(F)(F)F)cc23)cc(OC)c1OC = -0.36
• CC(C)(c1ccc(OCc2cccc(COc3ccc(C(=N)N)cc3)c2)cc1)c1ccc(O[C@@H]2O[C@H](C(=O)O)[C@@H](O)[C@H](O)[C@H]2O)cc1 = -4.59
• Cc1ccc(C(=O)Nc2cc(N3CCN(C)CC3)cc(C(F)(F)F)c2)cc1-n1cc(-c2cnn(C)c2C)nn1 = -0.67
• CCCCC[C@@](C)(O)/C=C/[C@H]1C(=O)CC(O)C1C/C=C\CCCC(=O)O (some centres undefined) = 0.15
• Cn1cc(C(=O)O)c2ccc(N3CCC(OCc4c(-c5c(Cl)cccc5Cl)noc4C4CC4)CC3)cc21 = 0.23
• C/C(=C\C(=O)Nc1ccccc1C(=O)O)c1ccc2ccccc2c1 = 0
• Oc1c(CN2CCCC2)cc(COCc2ccccc2)c2cccnc12 = -0.76
• COc1cc(Oc2nc(-c3ccc(NC(=O)C4CCOC4)cc3)nn3c(C)nc(C)c23)cc(OC)c1OC (centres undefined) = -0.39
• CCc1cnn2c(NCc3ccc[n+]([O-])c3)cc(N3CCCCC3CCO)nc12 (centres undefined) = 7.6
• Cc1cn(CCN2CCN(c3ccccc3-c3cc(C#N)cc(C(=O)NCCCN4CCCC4)c3)CC2)c2ccccc12 = -0.98
• COc1c(-c2cn(C3CCC(=O)NC3=O)nn2)csc1C(=O)N1CCCC1 (centres undefined) = -0.65
• NC(=O)C1CCCc2c1[nH]c1ccc(Cl)cc21 (centres undefined) = -0.8
• CN(CC(=O)Nc1ccc(F)c(F)c1F)C(=O)c1ccc2c(c1)OCCO2 = -0.75
• COc1cc2nc(-c3cc(F)ccc3O)nc(N[C@@H]3CNC[C@H]3C(C)(C)O)c2cc1OC = 3.22
• Nc1ncnc2c1c(COc1cccc(Cl)c1)nn2C1CCOCC1 = 0.11
• CNC(=O)c1ccc2c(c1)NC(=O)/C2=C(\Nc1ccc(CN2CCCCC2)cc1)c1ccccc1 = 1.71
• CC(C)(C)OC(=O)CN(Cc1ccc(Cl)cc1)Cc1ccc([N+](=O)[O-])s1 = -0.54
• C[C@@H]1COCCN1c1cc(=O)n2c(n1)N(Cc1cncc(Cl)c1)[C@H](C(F)(F)F)CC2 = 0.4
• O=C(O)CCCc1cc2cc(Cl)ccc2n1S(=O)(=O)c1ccc2ncsc2c1 = -2.46
• O=C(O)[C@]1(Cc2cccc(Nc3nccs3)n2)CC[C@@H](Oc2cccc(Cl)c2F)CC1 = 8.49

---

# system.under.test: Mitogen-activated protein kinase 1 (Homo sapiens)
# condition: Compound concentration 20.0 uM, Protein concentration 2.0 uM, Result type QC Liability
value.kind: ΔTm (°C)

• NS(=O)(=O)c1ccc(Nc2nc(OCC3CCCCC3)c3nc[nH]c3n2)cc1 = 2.65
• CC(=O)N1CCC(c2ccc(C(=O)NC(=N)N)cc2C(F)(F)F)CC1 = 0.32
• CN[C@@H]1CC[C@@H](c2ccc(Cl)c(Cl)c2)c2ccccc21 = 0
• CC(=O)N1CCN([C@H]2CCC[C@@H](NC(=O)c3cc4c(F)ccc(C)c4[nH]3)C2)CC1 = 0.42

---

Each record here notes measured ΔTm.
# system.under.test: Tyrosine-protein kinase ABL1 (Homo sapiens)
# condition: Compound concentration 20.0 uM, Protein concentration 2.0 uM, Result type QC Liability
# Description: Thermal Shift Assay. Domain: start/stop: S229-K512
value.kind: ΔTm (°C)

• CN1C(=O)c2c(nn(Cc3ccc(-c4cccc(F)n4)cc3)c2Nc2ccccc2)N2C1=N[C@@H]1CCC[C@@H]12 = 0.4
• CN(C)CC#Cc1ccc2[nH]c3c(c2c1)-c1nc(N)ncc1CCC3 = 0.75
• CCN1CCN(Cc2ccc(Nc3ncc(F)c(-c4cc(F)c5nc(C)n(C(C)C)c5c4)n3)nc2)CC1 = 3.44
• CN[C@@H](C)C(=O)N[C@H](C(=O)N1CCC[C@H]1C(=O)N[C@@H]1CCCc2ccccc21)C1CCCCC1 = 0.2
• COCCN1CCN(CCn2ccc(Nc3ncc4c(n3)-c3c(nn(C)c3-c3ccccc3)C[C@H]4C)n2)CC1 = 2.08

---

Catalogue of ΔTm readings, one per entry.
# system.under.test: Cyclin-dependent kinase 2 (Homo sapiens) (UniProt P24941)
# condition: Compound concentration 20.0 uM, Protein concentration 2.0 uM, Result type QC Liability
# Description: Thermal Shift Assay. Domain: start/stop: M1-L298
value.kind: ΔTm (°C)

- Clc1ccc(-c2nc3sccn3c2/C=N/OCc2ccc(Cl)c(Cl)c2)cc1: -0.94
- CN1Cc2nccc(-c3cn(C)nc3-c3ccc(F)cc3)c2C1=O: 0.02
- N#CN1CC[C@H](C(=O)Nc2nc3c(s2)CN(C(=O)CN=[N+]=[N-])CC3)C1: 0.34
- O=C(O)CCCCCC[C@@H]1C(=O)NC(=O)N1CCC(O)C1CCCCC1 (some centres undefined): 0.46

Data credit: ChEMBL document CHEMBL5308504
